Provenance of the data: patent US20240109917A1

biological target: Tb-labeled inactive PDGFRβ (Homo sapiens (Human), UniProt P09619); assay: PDGFRβ LanthaScreen Assay; conditions: read-out: PDGFR Lantha IC50
Sequence (P09619 33-1106): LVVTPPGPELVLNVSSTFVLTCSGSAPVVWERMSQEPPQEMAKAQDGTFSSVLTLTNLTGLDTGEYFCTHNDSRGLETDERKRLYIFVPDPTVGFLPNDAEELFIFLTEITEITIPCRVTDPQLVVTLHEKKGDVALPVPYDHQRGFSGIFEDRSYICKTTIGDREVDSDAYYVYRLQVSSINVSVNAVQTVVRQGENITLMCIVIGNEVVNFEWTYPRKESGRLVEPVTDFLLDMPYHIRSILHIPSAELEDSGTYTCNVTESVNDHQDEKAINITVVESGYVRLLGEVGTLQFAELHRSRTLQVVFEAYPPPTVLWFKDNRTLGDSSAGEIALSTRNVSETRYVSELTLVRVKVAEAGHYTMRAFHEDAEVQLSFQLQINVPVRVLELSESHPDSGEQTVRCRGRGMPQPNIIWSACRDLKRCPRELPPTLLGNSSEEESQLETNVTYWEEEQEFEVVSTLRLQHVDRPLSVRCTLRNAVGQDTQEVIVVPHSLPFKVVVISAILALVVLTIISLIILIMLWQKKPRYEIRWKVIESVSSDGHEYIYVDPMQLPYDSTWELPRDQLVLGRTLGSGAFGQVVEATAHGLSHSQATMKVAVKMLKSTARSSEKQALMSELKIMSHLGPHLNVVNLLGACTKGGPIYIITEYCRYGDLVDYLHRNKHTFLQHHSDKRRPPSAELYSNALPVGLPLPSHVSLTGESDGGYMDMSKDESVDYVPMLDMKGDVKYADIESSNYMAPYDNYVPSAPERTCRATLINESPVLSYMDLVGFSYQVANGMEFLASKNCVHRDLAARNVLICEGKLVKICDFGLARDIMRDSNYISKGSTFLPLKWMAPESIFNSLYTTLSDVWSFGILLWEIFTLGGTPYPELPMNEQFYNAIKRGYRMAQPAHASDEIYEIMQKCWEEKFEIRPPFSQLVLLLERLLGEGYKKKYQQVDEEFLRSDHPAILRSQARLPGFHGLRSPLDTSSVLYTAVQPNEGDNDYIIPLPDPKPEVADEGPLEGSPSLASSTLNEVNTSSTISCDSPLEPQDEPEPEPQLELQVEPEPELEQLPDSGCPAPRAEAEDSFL
EXPERIMENTAL READOUT: pIC50
Give bare numbers, as −log10 of the molar value.

>>> df
                                   molecule  measured_value
0  Cc1ncc(NC(=O)CN2CC(C)(C)C2)cc1NC(=O)c1cnn2cc(-c3cnn(-c4cccnc4)c3)sc12 [Example 289]            8.15

Report pIC50 for every entry below.
1. COc1ncccc1-c1cn2ncc(C(=O)Nc3cc(C(=O)NCCN4CC(C)(C)C4)cnc3C)c2s1 [Example 387]
2. Cc1ncc(C(=O)NCCN2CC3CCC2C3)cc1NC(=O)c1cnn2cc(-c3cn(C)nc3C)sc12 (stereo not drawn) [Example 212]
3. Cn1cc(-c2cn3ncc(C(=O)Nc4cc(C(=O)NCCN5CCCC5(C)C)ccc4F)c3s2)cn1 [Example 207]

Response given:
8.82
8.89
8.36

Report pIC50 for every entry below.
1. COCCn1cc(-c2cn3ncc(C(=O)Nc4cc(NC(=O)[C@@H]5CCCN5C(C)C)cnc4C)c3s2)cn1 [Example 343]
2. COc1ncccc1-c1cn2ncc(C(=O)Nc3cc(NC(=O)CN4CCC4)cnc3C)c2s1 [Example 397]
3. Cc1ncc(NC(=O)NCC2CCN(C(C)C)CC2)cc1NC(=O)c1cnn2cc(-c3cnn(C)c3)sc12 [Example 109]
4. Cc1ncc(C(=O)NCCN2CCCC2(C)C)cc1NC(=O)c1cnn2cc(-c3cnn4c3CCC4)sc12 [Example 481]
5. Cc1ncc(NC(=O)CN2CC(C)(C)C2)cc1NC(=O)c1cnn2cc(-c3cnn(CC(N)=O)c3)sc12 [Example 267]

Response given:
1. 7.07
2. 7.66
3. 5.72
4. 8.70
5. 7.86

Report pIC50 for every entry below.
1. Cc1ncc(C(=O)NCCN2CCCC23COC3)cc1NC(=O)c1cnn2cc(-c3c(C)nn(C)c3C)sc12 [Example 179]
2. COCCn1cc(-c2cn3ncc(C(=O)Nc4cc(NC(=O)C(C)(C)CN5CCCC5(C)C)cnc4C)c3s2)cn1 [Example 488]
3. COc1ncccc1-c1cn2ncc(C(=O)Nc3cc(NC(=O)OCC(C)N4CCCC4)cnc3C)c2s1 (stereo not drawn) [Example 255]
4. Cc1ncc(NC(=O)CNC2CCC2)cc1NC(=O)c1cnn2cc(-c3cnn4c3CCC4)sc12 [Example 471]
5. Cc1ncc(NC(=O)CN2CCCC2(C)C)cc1NC(=O)c1cnn2cc(-c3cccn(CCF)c3=O)sc12 [Example 449]

Response given:
1: 8.16; 2: 5.89; 3: 8.72; 4: 9.00; 5: 8.04

Challenge: What value of measured pIC50 is listed for Cc1ncc(C(=O)NCCN2CCCC2(C)C)cc1NC(=O)c1cnn2cc(-c3cn(C)nc3CO)sc12 [Example 224] ?
Response given: 7.95

----------
target: Tb-labeled inactive PDGFRβ (Homo sapiens (Human)); test: PDGFRβ LanthaScreen Assay; conditions: read-out: PDGFR Lantha IC50
Label class 1 when IC50 < 4 nM; otherwise class 0.

As a guide, the following entries are already answered.
>>> df
                                 smiles_str  assigned_label
0  Cc1cc(C(=O)NCCN2CCC(CO)CC2)sc1NC(=O)c1cnn2cc(-c3cnn(C)c3)sc12         class 0
1  COc1ncccc1-c1cn2ncc(C(=O)Nc3cc(NC(=O)CN4CCOCC45CCC5)cnc3C)c2s1         class 1

Challenge: Quick check: IC50 of Cc1ncc(NC(=O)CN2CC(C)(C)C2)cc1NC(=O)c1cnn2cc(-c3cnn(C4CCNCC4)c3)sc12 under 4 nM?
Response given: class 0

Challenge: What about this compound? Cc1ncc(C(=O)NC[C@H]2CCCN2CCO)cc1NC(=O)c1cnn2cc(-c3cnn(C)c3)sc12
Response given: class 0

Challenge: What about this compound? Cc1ncc(NC(=O)CN2CCC2(C)C)cc1NC(=O)c1cnn2cc(-c3cnn(C)c3)sc12
Response given: class 0

Challenge: What about this compound? Cc1cc(C(=O)NCCN(C)C2CCCC2)sc1NC(=O)c1cnn2cc(-c3cnn(C)c3)sc12
Response given: class 0

Challenge: What about this compound? Cc1ncc(C(=O)NCCN2CCC3(CC3)C2)cc1NC(=O)c1cnn2cc(-c3ccccn3)sc12
Response given: class 0

Challenge: What about this compound? Cc1ncc(NC(=O)CN2CC(C)(C)C2)cc1NC(=O)c1cnn2cc(-c3c[nH]c4ccccc34)sc12
Response given: class 1

Challenge: What about this compound? Cc1ncc(C(=O)NCCN2CCCC2(C)C)cc1NC(=O)c1cnn2cc(-c3cnn4c3OCCC4)sc12
Response given: class 1

Challenge: What about this compound? Cc1ccc(-c2cn3ncc(C(=O)Nc4cc(C(=O)NCCN5CCCC5(C)C)cnc4C)c3s2)cn1
Response given: class 1

Challenge: What about this compound? Cc1ncc(NC(=O)CN2CC(C)(C)C2)cc1NC(=O)c1cnn2cc(-c3cnn(C(F)(F)F)c3)sc12
Response given: class 0

----------
biological target: Tb-labeled inactive PDGFRβ (Homo sapiens (Human), UniProt P09619); assay: PDGFRβ LanthaScreen Assay; settings: read-out: PDGFR Lantha IC50
Record form. Attribute: pIC50. Fill in for each entry.
Numbers only, as −log10 of the molar value.

In the examples that follow, each entry is paired with its recorded pIC50.
In [3]: df
Out[3]:
                                 smiles_str  experimental_readout  measured_value
0  Cc1ncc(NC(=O)CN2CC(C)(C)C2)cc1NC(=O)c1cnn2cc(-c3cncnc3)sc12                 pIC50            6.73
1  Cc1ncc(C(=O)NCCN2CCCC2(C)C)cc1NC(=O)c1cnn2cc(-c3ccnc(N(C)C)c3)sc12                 pIC50            8.64
2  CCOc1ncccc1-c1cn2ncc(C(=O)Nc3cc(NC(=O)CN4CC(C)(C)C4)cnc3C)c2s1                 pIC50            9.05
3  Cc1ncc(NC(=O)CN2CCc3scnc3C2)cc1NC(=O)c1cnn2cc(-c3cnn(C)c3)sc12                 pIC50            7.91
4  COCCn1cc(-c2cn3ncc(C(=O)Nc4cc(NC(=O)C5(CN6CCCC6(C)C)CC5)cnc4C)c3s2)cn1                 pIC50            6.71

Report pIC50 for every entry below.
1. Cc1ncc(C(=O)NCCN2CC3CCC2CC3)cc1NC(=O)c1cnn2cc(-c3cnn4c3COCC4)sc12
2. Cc1ncc(C(=O)NCCN2CCCC2(C)C)cc1NC(=O)c1cnn2cc(-c3cnn4c3COCC4)sc12
3. Cc1ncc(C(=O)NCCN2CCCC23COC3)cc1NC(=O)c1cnn2cc(-c3cn(C)nc3C)sc12
4. Cc1ncc(C(=O)NCCN2CCOCC23CCC3)cc1NC(=O)c1cnn2cc(-c3cnn(C)c3)sc12

Response given:
1. 8.82
2. 8.62
3. 8.51
4. 8.64
